Provenance of the data: ChEMBL document CHEMBL1153287

- Tested on: Trypanosoma brucei
- Test Summary: Inhibition of Trypanosoma brucei 117 DPMS-mediated glycosylphosphatidylinositol anchor biosynthesis assessed as reduction of dolicholphosphate-mannose formation
Activity calls are given as the source filed them. The calls are words filed in the database; no cut-off is given here.
Quantity Kind: inhibition

>  <Chem Smiles>
O=C(O)CN1C(=O)/C(=C/c2ccc(OCc3ccccc3)cc2)SC1=S

>  <Quantity Kind>
inhibition

>  <Measurement>
inactive

$$$$
>  <Chem Smiles>
O=C(O)CN1C(=O)/C(=C/c2ccc(OCc3ccccc3)c(OCc3ccccc3)c2)SC1=S

>  <Quantity Kind>
inhibition

>  <Measurement>
Active

$$$$
>  <Chem Smiles>
O=C(O)CN1C(=O)/C(=C/c2ccc(O)cc2)SC1=S

>  <Quantity Kind>
inhibition

>  <Measurement>
Active

$$$$
>  <Chem Smiles>
O=C(O)CN1C(=O)/C(=C/c2ccccc2O)SC1=S

>  <Quantity Kind>
inhibition

>  <Measurement>
inactive

$$$$

====

Reported inhibition at 1000 µM is given for each of the following molecules.
- Test Summary: Cytotoxicity against human HeLa cells assessed as growth inhibition at 1 mM by alamar blue assay
- Type: cell-based
Your answer should be a plain number; it is taken to be in %.

Write down inhibition at 1000 µM measured for item O=C(O)CN1C(=O)/C(=C/c2ccc(OCc3ccccc3)cc2)SC1=S
20

Write down inhibition at 1000 µM measured for item C#Cc1ccc(/C=C2\SC(=S)N(CC(=O)O)C2=O)cc1
20

====

Reported EC50 is given for each of the following compounds.
- Test system: Trypanosoma brucei
- Test Summary: Antitrypanosomal activity against Trypanosoma brucei 427
- Assay type: functional
- Setup Conditions: read-out: ED50 (the source's name)
Your answer should be a plain number; it is taken to be in µM.

Example entries begin here.
>  <Chem Smiles>
O=C(O)CN1C(=O)/C(=C/c2ccccc2O)SC1=S

>  <Unit Annotation>
µM

>  <EC50>
107

$$$$
>  <Chem Smiles>
O=C(O)CN1C(=O)/C(=C/c2cccc(O)c2)SC1=S

>  <Unit Annotation>
µM

>  <EC50>
345

$$$$
>  <Chem Smiles>
O=C(O)CN1C(=O)/C(=C/c2ccccc2)SC1=S

>  <Unit Annotation>
µM

>  <EC50>
232

$$$$
>  <Chem Smiles>
O=C(O)CN1C(=O)/C(=C/c2ccc(O)cc2)SC1=S

>  <Unit Annotation>
µM

>  <EC50>
427

$$$$
>  <Chem Smiles>
N#Cc1ccc(/C=C2\SC(=S)N(CC(=O)O)C2=O)cc1

>  <Unit Annotation>
µM

>  <EC50>
244

$$$$
>  <Chem Smiles>
O=C(O)CN1C(=O)/C(=C/c2ccc(OCc3ccccc3)c(OCc3ccccc3)c2)SC1=S

>  <Unit Annotation>
µM

>  <EC50>
492

$$$$
>  <Chem Smiles>
O=C(O)CN1C(=O)/C(=C/c2ccc(Cl)cc2)SC1=S

>  <Unit Annotation>
µM

>  <EC50>
398

$$$$
>  <Chem Smiles>
O=C(O)CN1C(=O)/C(=C/c2ccc(OCc3ccccc3)cc2)SC1=S

>  <Unit Annotation>
µM

>  <EC50>
338

$$$$

Write down EC50 measured for item O=C(O)CN1C(=O)/C(=C/c2cccc(OCc3ccccc3)c2)SC1=S
96
